These data points were gathered from patent US20200339544A1.

Each record here notes measured SI IC50(A549)/IC50(DM).
- Test system: H1975 (lung adenocarcinoma, DM, L828R/T790M)
- experiment.notes: Antiproliferative activity on H1975 cells (Alamar Blue)
- Assay type: cell-based
- cond: selectivity index, A549 vs H1975 cells
- Method: Antiproliferative activity of EGFR inhibitors (Tables 15 and 16) was measured in cell-based bioassay on continuous epithelial cell cultures: A549 (lung adenocarcinoma, ATCC® CRM-CCL-185™—WT), HCC827 (lung adenocarcinoma, ATCC® CRL-2868™—SM (SingleMutantEGFR, exon19delE746-A750)) and H1975 (lung adenocarcinoma, ATCC® CRL-5908™—DM (DoubleMutantEGFR, L828R/T790M)) using cell viability reagent Alamar Blue (ThermoFisher, # DAL1100). […]
API doc: respond with a numeric literal and nothing else, no unit.

INSERT INTO assay_data (compound_structure, tested_target, obs_value) VALUES
  ('C=CC(=O)Nc1cc(Nc2nccc(C(=O)c3ccc(N4CCC(C#N)CC4)cc3)n2)c(OC)cc1N(C)CCN(C)C', 'H1975 (lung adenocarcinoma, DM, L828R/T790M)', 601);

We now examine a further compound.
// query Query: SI IC50(A549)/IC50(DM); subject: C=CC(=O)Nc1cc(Nc2nccc(C(=O)c3ccc(OCC)cc3)n2)c(OC)cc1N(C)CCN(C)C
// result 595.06
